measurementProtocol: Metabolic stability in human liver microsomes
conditionsUsed: human, microsomes, pH 7.4
propertyName: microsomal CLint at 3 µM (µL/min/mg)

- structureNotation: "CCCCCCCCCCCCCCCCCOCCOP(=O)(O)CO[C@H](C)Cn1cnc2c(N)ncnc21.N"
  censoringSign: "="
  testResult: 19.8
- structureNotation: "C[C@H](Cn1cnc2c(N)ncnc21)OCP(=O)(O)OCCOCCCCCCCCCCCCCCCCC(F)(F)F.N"
  censoringSign: "<"
  testResult: 5.78
- structureNotation: "CCCCCCCCOCCCCCOCCCCCOP(=O)(O)CO[C@H](C)Cn1cnc2c(N)ncnc21.N"
  censoringSign: "="
  testResult: 58.6
- structureNotation: "C[C@H](Cn1cnc2c(N)ncnc21)OCP(=O)(O)OCCOCCCCCCCCCCCCCCC#CC(F)(F)F.N"
  censoringSign: "<"
  testResult: 5.78

###

measurementProtocol: in vitro
conditionsUsed: human, microsomes, pH 7.4
propertyName: microsomal CLint (µL/min/mg)

- compound: "CCCCCCCCCCCCCCCCOCCCOP(=O)(O)CO[C@H](C)Cn1cnc2c(N)ncnc21 [TXL, tenofovir Exalidex, reference compound]"
  propertyName: "microsomal CLint"
  readingUnit: "µL/min/mg"
  testResult: 16.7

###

measurementProtocol: Metabolic stability in human liver microsomes
conditionsUsed: human, microsomes, pH 7.4
Readings of microsomal CLint at 3 µM for the listed molecules

- structureNotation: "C[C@H](Cn1cnc2c(N)ncnc21)OCP(=O)(O)OCCOCCCCCCCCCCC#Cc1ccc(S(F)(F)(F)(F)F)cc1.N"
  censoringSign: "<"
  microsomal CLint at 3 µM / µL/min/mg: 5.78
- structureNotation: "C[C@H](Cn1cnc2c(N)ncnc21)OCP(=O)(O)OCCOCCCCCCCCCCCCc1ccc(S(F)(F)(F)(F)F)cc1.N"
  censoringSign: "<"
  microsomal CLint at 3 µM / µL/min/mg: 5.78
- structureNotation: "CCCCCCCCCCCCCCCOCCCCOP(=O)(O)CO[C@H](C)Cn1cnc2c(N)ncnc21.N"
  censoringSign: "="
  microsomal CLint at 3 µM / µL/min/mg: 14.4
- structureNotation: "C[C@H](Cn1cnc2c(N)ncnc21)OCP(=O)(O)OCCOCCCCCCCCCCCCCC#CC(F)(F)F.N"
  censoringSign: "<"
  microsomal CLint at 3 µM / µL/min/mg: 5.78
- structureNotation: "CCCCCCCCCCCCCCOCCCCCOP(=O)(O)CO[C@H](C)Cn1cnc2c(N)ncnc21.N"
  censoringSign: "="
  microsomal CLint at 3 µM / µL/min/mg: 22.5
- structureNotation: "C[C@H](Cn1cnc2c(N)ncnc21)OCP(=O)(O)OCCOCCCCCCCCCCCCCCCC(F)(F)F.N"
  censoringSign: "<"
  microsomal CLint at 3 µM / µL/min/mg: 5.78
- structureNotation: "CCCCCCCCCCCCCCCCCCOCCOP(=O)(O)CO[C@H](C)Cn1cnc2c(N)ncnc21.N"
  censoringSign: "="
  microsomal CLint at 3 µM / µL/min/mg: 6.6

###

Tested on: VSV pseudotype HIV-like viral particles
measurementProtocol: organism not typed
Type: cell-based
conditionsUsed: HEK-293T, 48 h, read-out: HIV IC50
Readings of IC50 for the listed compounds
propertyName: IC50

- structureNotation: "C[C@H](Cn1cnc2c(N)ncnc21)OCP(=O)(O)OCCOCCCCCCCCCCC#Cc1ccc(S(F)(F)(F)(F)F)cc1.N"
  targetOrSystem: "VSV pseudotype HIV-like viral particles"
  testResult: "0.0146 µM"
- structureNotation: "C[C@H](Cn1cnc2c(N)ncnc21)OCP(=O)(O)OCCOCCCCCCCCCCCCCCCC(F)(F)F.N"
  targetOrSystem: "VSV pseudotype HIV-like viral particles"
  testResult: "0.0088 µM"
- structureNotation: "CCCCCCCCOCCCCCOCCCCCOP(=O)(O)CO[C@H](C)Cn1cnc2c(N)ncnc21.N"
  targetOrSystem: "VSV pseudotype HIV-like viral particles"
  testResult: "4.05 µM"
- structureNotation: "CCCCCCCCCCCCCCCOCCCCOP(=O)(O)CO[C@H](C)Cn1cnc2c(N)ncnc21.N"
  targetOrSystem: "VSV pseudotype HIV-like viral particles"
  testResult: "0.03 µM"
- structureNotation: "COCCOCCOP(=O)(O)CO[C@H](C)Cn1cnc2c(N)ncnc21.N"
  targetOrSystem: "VSV pseudotype HIV-like viral particles"
  testResult: "21.4 µM"
- structureNotation: "CCCCCCCCCCCCCCCCCCOCCOP(=O)(O)CO[C@H](C)Cn1cnc2c(N)ncnc21.N"
  targetOrSystem: "VSV pseudotype HIV-like viral particles"
  testResult: "0.003 µM"
- structureNotation: "C[C@H](Cn1cnc2c(N)ncnc21)OCP(=O)(O)OCCOCCCCCCCCCCCCCCCCC(F)(F)F.N"
  targetOrSystem: "VSV pseudotype HIV-like viral particles"
  testResult: "0.0126 µM"
- structureNotation: "COCCOCCOCCOCCOCCOCCOP(=O)(O)CO[C@H](C)Cn1cnc2c(N)ncnc21.N"
  targetOrSystem: "VSV pseudotype HIV-like viral particles"
  testResult: "31.2 µM"
- structureNotation: "CCCCCCCCCCCCCCOCCCCCOP(=O)(O)CO[C@H](C)Cn1cnc2c(N)ncnc21.N"
  targetOrSystem: "VSV pseudotype HIV-like viral particles"
  testResult: "0.052 µM"

###

Tested on: VSV pseudotype HIV-like viral particles
measurementProtocol: organism not typed
Format: cell-based
conditionsUsed: HEK-293T, 48 h, read-out: HIV IC50
pIC50: −log10 of the molar value.
Readings of pIC50 for the listed molecules

- molecule: "C[C@H](Cn1cnc2c(N)ncnc21)OCP(=O)(O)OCCOCCCCCCCCCCCCc1ccc(S(F)(F)(F)(F)F)cc1.N"
  censoringSign: "="
  pIC50: 7.60
- molecule: "CCCCOCCCCCOCCCCCOCCCOP(=O)(O)CO[C@H](C)Cn1cnc2c(N)ncnc21.N"
  censoringSign: "<"
  pIC50: 4.49
- molecule: "CCCCCCCCCCCCCCCCOCCCOP(=O)(O)CO[C@H](C)Cn1cnc2c(N)ncnc21 [TXL, tenofovir Exalidex, reference compound]"
  censoringSign: "="
  pIC50: 7.74
- molecule: "C[C@H](Cn1cnc2c(N)ncnc21)OCP(=O)(O)OCCOCCCCCCCCCCCCCCC#CC(F)(F)F.N"
  censoringSign: "="
  pIC50: 7.97
- molecule: "C[C@H](Cn1cnc2c(N)ncnc21)OCP(=O)(O)OCCOCCCCCCCCCCCCCC#CC(F)(F)F.N"
  censoringSign: "="
  pIC50: 7.80
- molecule: "CCCCCCCCCCCCCCCCCOCCOP(=O)(O)CO[C@H](C)Cn1cnc2c(N)ncnc21.N"
  censoringSign: "="
  pIC50: 8.52
- molecule: "COCCOCCOCCOCCOP(=O)(O)CO[C@H](C)Cn1cnc2c(N)ncnc21.N"
  censoringSign: "="
  pIC50: 4.57

###

measurementProtocol: Metabolic stability in human liver microsomes
conditionsUsed: human liver microsomes, 3 μM prodrug, NADPH, 0-120 min
Readings of HLM t1/2 for the listed molecules

- molecule: "C[C@H](Cn1cnc2c(N)ncnc21)OCP(=O)(O)OCCOCCCCCCCCCCCCCCCC(F)(F)F.N"
  readingUnit: "h"
  censoringSign: ">"
  HLM t1/2: 2
- molecule: "C[C@H](Cn1cnc2c(N)ncnc21)OCP(=O)(O)OCCOCCCCCCCCCCCCCCC#CC(F)(F)F.N"
  readingUnit: "h"
  censoringSign: ">"
  HLM t1/2: 2
- molecule: "CCCCCCCCCCCCCCCOCCCCOP(=O)(O)CO[C@H](C)Cn1cnc2c(N)ncnc21.N"
  readingUnit: "h"
  censoringSign: "="
  HLM t1/2: 0.8
- molecule: "C[C@H](Cn1cnc2c(N)ncnc21)OCP(=O)(O)OCCOCCCCCCCCCCC#Cc1ccc(S(F)(F)(F)(F)F)cc1.N"
  readingUnit: "h"
  censoringSign: ">"
  HLM t1/2: 2
- molecule: "C[C@H](Cn1cnc2c(N)ncnc21)OCP(=O)(O)OCCOCCCCCCCCCCCCCCCCC(F)(F)F.N"
  readingUnit: "h"
  censoringSign: ">"
  HLM t1/2: 2
- molecule: "CCCCCCCCCCCCCCCCCOCCOP(=O)(O)CO[C@H](C)Cn1cnc2c(N)ncnc21.N"
  readingUnit: "h"
  censoringSign: "="
  HLM t1/2: 0.583
- molecule: "CCCCCCCCOCCCCCOCCCCCOP(=O)(O)CO[C@H](C)Cn1cnc2c(N)ncnc21.N"
  readingUnit: "h"
  censoringSign: "="
  HLM t1/2: 0.2
- molecule: "CCCCCCCCCCCCCCOCCCCCOP(=O)(O)CO[C@H](C)Cn1cnc2c(N)ncnc21.N"
  readingUnit: "h"
  censoringSign: "="
  HLM t1/2: 0.517
- molecule: "C[C@H](Cn1cnc2c(N)ncnc21)OCP(=O)(O)OCCOCCCCCCCCCCCCc1ccc(S(F)(F)(F)(F)F)cc1.N"
  readingUnit: "h"
  censoringSign: ">"
  HLM t1/2: 2
- molecule: "CCCCCCCCCCCCCCCCCCOCCOP(=O)(O)CO[C@H](C)Cn1cnc2c(N)ncnc21.N"
  readingUnit: "h"
  censoringSign: "="
  HLM t1/2: 1.75
- molecule: "C[C@H](Cn1cnc2c(N)ncnc21)OCP(=O)(O)OCCOCCCCCCCCCCCCCC#CC(F)(F)F.N"
  readingUnit: "h"
  censoringSign: ">"
  HLM t1/2: 2
- molecule: "CCCCCCCCCCCCCCCCOCCCOP(=O)(O)CO[C@H](C)Cn1cnc2c(N)ncnc21 [TXL, tenofovir Exalidex, reference compound]"
  readingUnit: "h"
  censoringSign: "="
  HLM t1/2: 0.693

Attribution: paper PMC9852841
